# Experimental system: UniProtKB P21397
# Experimental protocol: hMAO-A inhibition, Amplex Red fluorometric assay with kynuramine substrate
# Stated conditions: recombinant hMAO-A, kynuramine 50 µM, mean ± SD of triplicate, max tested 100 µM
Measurement label: pIC50
To interpret pIC50, take it as minus log10 of a concentration measured in moles per litre.

Example entries begin here.
C=CCOc1ccc(C2=NN(C(C)=O)C(c3ccccc3)C2)cc1 (stereo not drawn) [Compound P7] | 4.41
CCCOc1ccc(C2=NN(C(N)=S)[C@H](c3ccccc3)C2)cc1 [(S)-P3] | 5.02
CCOc1ccc(C2=NN(C(N)=S)[C@@H](c3ccccc3)C2)cc1 [(R)-P2] | 4.47
CC(=O)N1N=C(c2ccc(OCC=C(C)C)cc2)CC1c1ccccc1C (stereo not drawn) [Compound P9] | 5.04
CCCCOc1ccc(C2=NN(C(N)=S)[C@@H](c3ccccc3)C2)cc1 [(R)-P4] | 5.44

Next compound, please.
### Prompt Any idea what its pIC50 is? The compound is COc1ccc(C2=NN(C(N)=S)[C@H](c3ccccc3)C2)cc1 [(S)-P1]
### Response 4.33

====

Overview of reported IC50 across a group of compounds:
# Experimental system: hMAO-A (Homo sapiens, UniProt P21397)
# Sequence (P21397 1-527): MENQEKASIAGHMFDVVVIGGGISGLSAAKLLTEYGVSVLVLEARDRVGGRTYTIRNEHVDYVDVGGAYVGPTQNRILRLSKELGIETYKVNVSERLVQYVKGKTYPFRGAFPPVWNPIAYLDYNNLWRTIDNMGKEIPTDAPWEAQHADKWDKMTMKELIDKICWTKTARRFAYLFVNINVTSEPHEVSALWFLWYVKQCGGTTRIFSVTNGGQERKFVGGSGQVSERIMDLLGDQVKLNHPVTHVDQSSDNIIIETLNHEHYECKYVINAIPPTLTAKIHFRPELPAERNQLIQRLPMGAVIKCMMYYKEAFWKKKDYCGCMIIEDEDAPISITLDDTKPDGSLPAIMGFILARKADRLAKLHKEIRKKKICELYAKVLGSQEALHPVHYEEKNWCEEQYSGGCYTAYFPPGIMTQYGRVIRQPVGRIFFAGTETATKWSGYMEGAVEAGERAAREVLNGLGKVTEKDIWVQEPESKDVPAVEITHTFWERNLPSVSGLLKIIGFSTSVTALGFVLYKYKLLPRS
# Experimental protocol: hMAO-A inhibition, Amplex Red fluorometric assay with kynuramine substrate
# Stated conditions: recombinant hMAO-A, kynuramine 50 µM, mean ± SD of triplicate, max tested 100 µM
Unit µM implied. Number only.

Example entries begin here.
CC(=O)N1N=C(c2ccc(OCC=C(C)C)cc2)CC1c1cccc(Cl)c1 (centres unmarked) [Compound P14] | 4.13
CCCOc1ccc(C2=NN(C(N)=S)[C@@H](c3ccccc3)C2)cc1 [(R)-P3] | 8

Next compound, please.
### Prompt Any idea what its IC50 is? The compound is CCOc1ccc(C2=NN(C(N)=S)[C@H](c3ccccc3)C2)cc1 [(S)-P2]
### Response 32.3

====

Overview of reported pIC50 across a group of compounds:
# Experimental system: UniProtKB P21397
# Experimental protocol: hMAO-A inhibition, Amplex Red fluorometric assay with kynuramine substrate
# Stated conditions: recombinant hMAO-A, kynuramine 50 µM, mean ± SD of triplicate, max tested 100 µM
To interpret pIC50, take it as minus log10 of a concentration measured in moles per litre.

Example entries begin here.
CC(=O)N1N=C(c2ccc(OCC=C(C)C)cc2)CC1c1ccccc1Cl (stereo not drawn) | 5.24
CCCCOc1ccc(C2=NN(C(N)=S)[C@H](c3ccccc3)C2)cc1 [(S)-P4] | 4.41

### Prompt Any idea what its pIC50 is? The compound is CC(=O)N1N=C(c2ccc(OCC=C(C)C)cc2)CC1c1cccc(C)c1 (stereo not drawn)
### Response 4.06

### Prompt Any idea what its pIC50 is? The compound is CC(=O)N1N=C(c2ccc(OCC=C(C)C)cc2)CC1c1ccc(Cl)cc1 (stereo not drawn)
### Response 4.92

### Prompt Any idea what its pIC50 is? The compound is CCCCCOc1ccc(C2=NN(C(N)=S)[C@@H](c3ccccc3)C2)cc1 [(R)-P5]
### Response 5.52

### Prompt Any idea what its pIC50 is? The compound is COc1ccc(C2=NN(C(N)=S)[C@@H](c3ccccc3)C2)cc1 [(R)-P1]
### Response 4.30

### Prompt Any idea what its pIC50 is? The compound is CC(=O)N1N=C(c2ccc(OCC=C(C)C)cc2)CC1c1ccc(C)cc1C (stereo not drawn)
### Response 4.09

### Prompt Any idea what its pIC50 is? The compound is CCCCCOc1ccc(C2=NN(C(N)=S)[C@H](c3ccccc3)C2)cc1 [(S)-P5]
### Response 4.26
